molecular target: M5; experiment: ELISA on coated antigen, column M5
Would you kindly list absorbance at 490 nm for each of these binders?
Give the figure by itself; no unit, no explanation.

Give reported absorbance at 490 nm value for PDL1-31B7 (antibody, V domains shown, Only FR/CDR pieces are tied to the clone) VH: QVQLVESGAEVKKPGSSVKVSCKASGGTFSSYAISWVRQAPGQGLEWMGRIIPILGIANYAQKFQGRVTITADKSTSTAYMELSSLRSEDTAVYYCARASSGYSVGAFDIWGQGTMVTVSS VL: QLVLTQPPSVSAPPGQKVTISCSGSSSNIGNNYVSWYQQLPGTAPKLLIYDNNERPSGIPDRFSASKSGTSATLGISGLQTGDEADYYCGTWDSSLSAGVFGGGTKLTVL
2.9

Give reported absorbance at 490 nm value for PDL1-23E10 (scFv, V domains shown) VH: QMQLVESGAEVKKPGSSVKVSCKVSGENFRSHAISWVRQAPGQGLEWMGRIIPIVGLADYPQKFQGRVTISADESTGTAYMDLSSLRSEDTAVYYCVTGRPPWHWGQGILITVSS VL: QLVLTQPPSVSGAPGQRVTISCTGSSSNIGAGYDVHWYQQLPGTAPKLLIYSNRNRPSGVPDRFSGSKSGTSASLAITGLQAEDEADYYCQSYDSSLSGPNYVFGTGTKVTVL
2.2

Give reported absorbance at 490 nm value for PDL1-31E6 (antibody, V domains shown, Only FR/CDR pieces are tied to the clone) VH: QVQLVQSGAEVKKPGSSVKVSCKASGGTFSSYAISWVRQAPGQGLEWMGGIIPIFGTANYAQKFQGRVTITADESTSTAYMELSSLRSEDTAVYYCARGGRSFGAFDSWGQGALVTVSS VL: DIQMTQSPATLSLSPGERATLSCTASQSISSYLAWYQQKPGQAPRLLIYDSSNRATGIPARFSGSGSGTAFTLTISSLEPEDFAVYFCQQRGQWPLTFGGGTKVDIK
2.7
